Assay: qHTS for Inhibitors of human tyrosyl-DNA phosphodiesterase 1 (TDP1): qHTS in cells in presence of CPT; also: nearly all actives have a fitted effect of over 55% in size
Settings: chicken DT40 Tdp1-/-;hTDP1 cells + 20 nM CPT, ATP luminescence, 48 h; series mostly up to 46.2 µM
In all, about 420,000 compounds went through this assay and about 50,000 (12%) were called active. Inconclusive results (about 26%) are left out. Calls follow the shape of the dose curve; as a rule, active = well fitted inhibition curve with a large enough effect; inconclusive = small, poorly fitted or top-dose-only effect; inactive = flat fitted curve, though single readings scatter. Many of the other results were omitted from the sample, so actives are more common in it than they were.
Pick from active, inactive when you respond.

Problem: Entry `COc1ccc(CCn2c(=N)c(C(=O)NCc3ccco3)cc3c(=O)n4cccc(C)c4nc32)cc1` : call = ?
Result: active

Problem: Outcome logged for `CC(=O)N(C)c1ccc(NC(=O)Nc2cccc3ccccc23)cc1` in this assay:
Result: inactive

Problem: Answer briefly: the call reported for `COc1ccc(S(=O)(=O)N2CCN(CC(=O)N3CCNC3=O)CC2)cc1OC` in this assay.
Result: inactive

Problem: Record lookup: outcome of this test for `CCOC(=O)c1ccccc1NS(=O)(=O)c1c(C)nc2sccn2c1=O` ?
Result: inactive

Problem: Tell me the assay call for `O=C(Nc1cccc2ccccc12)NC1CC1` please.
Result: inactive

Problem: Hi, sorry to bother you, what did the test record for `CCN(C(=O)Nc1cccc2ccccc12)c1ccccc1` ?
Result: active

Problem: What classification did `COc1ccc(C(=O)Nc2ccccc2C(=O)NCc2ccco2)cc1` end up with in this test?
Result: inactive

Problem: Check the results log: what was the call for `Cc1ccc(S(=O)(=O)c2cc3c(=O)n4cccc(C)c4nc3n(CCc3ccccc3)c2=N)cc1C` ?
Result: inactive

Problem: Could you check what this test reported for CCC(=O)N1CCc2cc(S(=O)(=O)NC(Cc3ccccc3)C(=O)NCc3ccc(C)cc3)ccc21 (stereo not given) ?
Result: inactive

Problem: Hi, do you know how `Cn1cc(C(=O)c2ccc(Cl)cc2Cl)cc1C(=O)NN` came out in this test?
Result: inactive
